SYSTEM UNDER TEST: SALL4 ZFC4 R900W (HT-SELEX) (Mus musculus, UniProt Q8BX22 870-940, R900W)
Sequence: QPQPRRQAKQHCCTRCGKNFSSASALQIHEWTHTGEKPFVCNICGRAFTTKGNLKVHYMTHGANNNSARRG
MEASUREMENT NOTES: HT-SELEX; high values mean tight binding
EXPERIMENTAL CONDITIONS: protein: recombinant; vector His6-GST; dsDNA, one strand shown
In this section we review reported log10 binding signal values for a set of sequences.
Log scale reminder: binding signal in fold-change vs cycle 0, then log10 taken.

[[record]]
sequence_entry = "CTACTA"
reported_endpoint = "log10 binding signal"
readout_number = 0.17

[[record]]
sequence_entry = "TGAAAA"
reported_endpoint = "log10 binding signal"
readout_number = 0.24

[[record]]
sequence_entry = "CCGGCA"
reported_endpoint = "log10 binding signal"
readout_number = -0.97


INPUT: Which log10 binding signal value is on record for `CGCGAC` ?
OUTPUT: -1.06

INPUT: Okay, and `CGTATA` ?
OUTPUT: 0.08

----------
SYSTEM UNDER TEST: SALL4 ZFC4 G921D (HT-SELEX) (Mus musculus, UniProt Q8BX22 870-940, G921D)
Sequence: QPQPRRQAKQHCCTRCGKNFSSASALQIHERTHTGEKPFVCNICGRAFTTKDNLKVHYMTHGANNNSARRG
MEASUREMENT NOTES: HT-SELEX; high values mean tight binding
EXPERIMENTAL CONDITIONS: protein: recombinant; vector His6-GST; dsDNA, one strand shown
Category key, based on recorded binding signal: bottom bin: < 0.6 fold-change vs cycle 0; middle bin: ≥ 0.6 fold-change vs cycle 0 and < 1 fold-change vs cycle 0; top bin: ≥ 1 fold-change vs cycle 0

Please review the following examples before continuing.
[[record]]
sequence_entry = "AGGTTA"
class_name = "top bin"

[[record]]
sequence_entry = "GCATTA"
class_name = "top bin"

[[record]]
sequence_entry = "CCCGTA"
class_name = "bottom bin"


INPUT: Field: class (binding signal) — entry: `CACTTC`
OUTPUT: middle bin

INPUT: Same read-out for `GAATTC` ?
OUTPUT: top bin

INPUT: Same lookup for `GGCACA` , please.
OUTPUT: bottom bin

INPUT: Another sequence: `ATCATA`
OUTPUT: top bin

----------
Each entry below carries its reported binding signal.
SYSTEM UNDER TEST: SALL4 ZFC4 G921D (HT-SELEX) (Mus musculus, UniProt Q8BX22 870-940, G921D)
Sequence: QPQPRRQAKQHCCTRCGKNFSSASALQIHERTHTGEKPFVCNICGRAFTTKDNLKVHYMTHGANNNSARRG
MEASUREMENT NOTES: HT-SELEX; high values mean tight binding
EXPERIMENTAL CONDITIONS: protein: recombinant; vector His6-GST; dsDNA, one strand shown
Reply numerically in fold-change vs cycle 0, unit not repeated.

The examples below pair each entry with its known result.
[[record]]
sequence_entry = "GTGGTA"
readout_number = 0.874

[[record]]
sequence_entry = "CGAGCC"
readout_number = 0.272

[[record]]
sequence_entry = "AGCCAT"
readout_number = 0.778

[[record]]
sequence_entry = "CACGAC"
readout_number = 0.501

[[record]]
sequence_entry = "GACATC"
readout_number = 0.967


INPUT: Would you kindly share the measured binding signal for `TACTAA` ?
OUTPUT: 1.87

INPUT: Try `AAAGCT` next.
OUTPUT: 1.17

INPUT: Same question, `CCACTC` this time
OUTPUT: 0.62

INPUT: Could you do the same for `ATAGAT` , please?
OUTPUT: 1.86

INPUT: Consider next the sequence `GCTGGA` in the same way.
OUTPUT: 0.484

INPUT: Another sequence: `ACTTTA`
OUTPUT: 1.75

INPUT: `AACCGG` ?
OUTPUT: 0.498

INPUT: Again, but for `ATTGGC`
OUTPUT: 0.665

INPUT: Now consider `AAGCCT` and answer again.
OUTPUT: 0.848

INPUT: Here is the next sequence: `GCACCA`
OUTPUT: 0.451

INPUT: Ok, now `GGAGGA`
OUTPUT: 0.733
